molecular target: Hsp90-FKBP51 (Saccharomyces cerevisiae); experiment: ITC, LA1011 binding to Hsp90-FKBP51 complex; conditions: 30 μM Hsp90, 60 μM FKBP51, 2:1 fit
Sequence (P02829 whole entry): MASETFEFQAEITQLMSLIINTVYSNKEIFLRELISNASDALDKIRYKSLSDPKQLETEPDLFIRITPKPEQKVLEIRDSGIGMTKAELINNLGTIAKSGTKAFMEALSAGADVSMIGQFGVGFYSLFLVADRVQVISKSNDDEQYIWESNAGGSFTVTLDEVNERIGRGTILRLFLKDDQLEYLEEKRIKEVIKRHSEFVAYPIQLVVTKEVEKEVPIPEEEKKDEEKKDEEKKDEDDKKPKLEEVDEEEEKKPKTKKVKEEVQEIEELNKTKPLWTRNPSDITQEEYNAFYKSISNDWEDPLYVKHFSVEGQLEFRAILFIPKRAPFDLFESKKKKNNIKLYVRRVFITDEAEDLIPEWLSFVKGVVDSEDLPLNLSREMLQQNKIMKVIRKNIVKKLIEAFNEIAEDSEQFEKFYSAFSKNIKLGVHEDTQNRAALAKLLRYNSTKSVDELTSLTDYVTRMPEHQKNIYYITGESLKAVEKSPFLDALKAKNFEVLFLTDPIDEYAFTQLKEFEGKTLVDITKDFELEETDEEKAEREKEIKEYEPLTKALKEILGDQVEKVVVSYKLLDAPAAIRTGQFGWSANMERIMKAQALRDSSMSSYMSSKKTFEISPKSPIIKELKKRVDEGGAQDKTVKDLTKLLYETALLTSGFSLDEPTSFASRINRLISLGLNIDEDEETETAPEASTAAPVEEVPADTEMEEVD
Sequence (Q13451 whole entry partner): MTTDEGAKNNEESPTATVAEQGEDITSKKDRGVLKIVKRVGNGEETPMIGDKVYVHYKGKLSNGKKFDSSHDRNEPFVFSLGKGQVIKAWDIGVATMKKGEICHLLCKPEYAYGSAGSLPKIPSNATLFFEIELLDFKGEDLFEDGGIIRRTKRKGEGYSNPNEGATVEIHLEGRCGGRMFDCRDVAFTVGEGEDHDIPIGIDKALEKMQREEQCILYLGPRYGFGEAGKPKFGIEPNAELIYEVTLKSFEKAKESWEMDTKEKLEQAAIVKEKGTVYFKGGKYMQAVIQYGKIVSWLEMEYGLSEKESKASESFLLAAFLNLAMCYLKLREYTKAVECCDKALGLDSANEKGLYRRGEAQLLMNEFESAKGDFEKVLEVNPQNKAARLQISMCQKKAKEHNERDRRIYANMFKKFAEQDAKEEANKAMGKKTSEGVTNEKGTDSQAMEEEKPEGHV
experimental-endpoint: Kd (µM)

molecule="COC(=O)C1=C(CCN(C)C)N(C)C(CCN(C)C)=C(C(=O)OC)C1c1ccc(C(F)(F)F)cc1.Cl.Cl [LA1011]" reported_result=79.4

---

biological target: Hsp90-HOP (Saccharomyces cerevisiae, UniProt P02829); details: read-out: Kd (2:1); ITC, 20 μM Hsp90, 40 μM HOP; 2:1 fit
Sequence (P02829 whole entry): as the sequence (P02829 whole entry) above
Sequence (P31948 whole entry partner): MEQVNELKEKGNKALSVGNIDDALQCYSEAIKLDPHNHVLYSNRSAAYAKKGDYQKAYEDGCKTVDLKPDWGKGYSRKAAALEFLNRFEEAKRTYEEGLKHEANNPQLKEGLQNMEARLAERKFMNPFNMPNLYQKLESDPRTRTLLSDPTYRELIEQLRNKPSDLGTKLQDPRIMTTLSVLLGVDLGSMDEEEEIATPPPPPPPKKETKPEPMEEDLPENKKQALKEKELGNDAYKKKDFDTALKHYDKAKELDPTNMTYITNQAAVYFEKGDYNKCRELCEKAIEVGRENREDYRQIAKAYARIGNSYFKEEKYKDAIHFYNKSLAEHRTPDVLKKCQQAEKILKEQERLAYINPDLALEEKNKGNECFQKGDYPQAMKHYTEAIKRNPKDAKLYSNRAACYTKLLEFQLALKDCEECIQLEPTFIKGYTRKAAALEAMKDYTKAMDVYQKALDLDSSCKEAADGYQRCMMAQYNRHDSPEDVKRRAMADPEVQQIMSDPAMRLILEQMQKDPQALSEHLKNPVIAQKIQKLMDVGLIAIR
experimental-endpoint: Kd

chemical_string=COC(=O)C1=C(CCN(C)C)N(C)C(CCN(C)C)=C(C(=O)OC)C1c1ccc(C(F)(F)F)cc1.Cl.Cl experimental_endpoint=Kd reported_result="8.8 µM"

---

target: Hsp90-CHIP (Saccharomyces cerevisiae, UniProt P02829); construct: made in house; test: ITC, LA1011 binding to Hsp90-mouse CHIP complex; design: species or system yeast; conditions: 20 μM Hsp90, 60 μM CHIP, 2:1 fit, read-out: Kd (2:1)
Sequence (P02829 whole entry): as the sequence (P02829 whole entry) above
Sequence (Q9WUD1 whole entry partner): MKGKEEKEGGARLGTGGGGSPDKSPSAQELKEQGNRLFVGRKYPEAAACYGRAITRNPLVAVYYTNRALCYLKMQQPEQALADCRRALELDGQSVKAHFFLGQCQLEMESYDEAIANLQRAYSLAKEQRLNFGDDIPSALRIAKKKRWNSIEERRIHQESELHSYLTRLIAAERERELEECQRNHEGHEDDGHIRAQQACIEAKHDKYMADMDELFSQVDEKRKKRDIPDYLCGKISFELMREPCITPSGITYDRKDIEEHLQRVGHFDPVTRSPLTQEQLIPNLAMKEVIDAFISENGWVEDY
experimental-endpoint: Kd (µM)

compound="COC(=O)C1=C(CCN(C)C)N(C)C(CCN(C)C)=C(C(=O)OC)C1c1ccc(C(F)(F)F)cc1.Cl.Cl [LA1011]" units=µM reported_result=69

Source: paper PMC12757481
